Each entry below carries its reported IC50.
measurement_target: human Nav1.8 (Homo sapiens)
Construct: expressed in transfected cells; host or cells: HEK293 (HEK293-Nav1.8)
assay_procedure: Nav1.8 sodium channels assay, QPatch 48 HTX electrophysiology in HEK293-Nav1.8 cells
Format: cell-based
run_conditions: at least one set of experimental runs; read-out: average pIC50 value against Nav1.8 (converted)

| molecule | IC50 |
| --- | --- |
| COc1ccc(N2CN(c3ccc(F)cc3Br)c3ccc(C(F)(F)F)cc3C2=O)c(C)n1 [Example 9] | 0.794 to 7.94 µM |
| Cc1cc(F)ccc1N1CN(c2ccc(=O)[nH]c2C)C(=O)c2ccc(C#N)cc21 [Example 153] | ≤ 0.1 µM |
| Cc1cc(F)ccc1N1CN(c2ccc(=O)[nH]c2)C(=O)c2c1ccc(Cl)c2F [Example 78] | 0.126 to 0.631 µM |
| Cc1cc(=O)[nH]c(C)c1N1CN(c2ccc(F)cc2C(C)C)c2ccc(Cl)cc2C1=O [Example 82] | 0.126 to 0.631 µM |
| Cc1cc(F)ccc1N1CN(c2ccc(=O)[nH]c2C)C(=O)c2cccc(C)c21 [Example 125] | 0.794 to 7.94 µM |
| Cc1cc2c(cc1F)C(=O)N(c1ccc(=O)[nH]c1C)CN2c1ccc(F)cc1C [Example 85] | ≤ 0.1 µM |
| Cc1cc(F)ccc1N1CN(c2ccc[nH]c2=O)C(=O)c2ccc(C(F)(F)F)cc21 [Example 204] | 0.794 to 7.94 µM |
| Cc1cc(F)ccc1N1CN(C2CCC(=O)NC2)C(=O)c2ccc(C(F)(F)F)cc21 (centres unmarked) [Example 268] | 0.126 to 0.631 µM |

---

Each entry below carries its reported IC50.
measurement_target: human Nav1.8 (Homo sapiens, UniProt Q9Y5Y9)
Construct: expressed in transfected cells; host or cells: HEK293 (HEK293-Nav1.8)
Sequence (Q9Y5Y9 whole entry): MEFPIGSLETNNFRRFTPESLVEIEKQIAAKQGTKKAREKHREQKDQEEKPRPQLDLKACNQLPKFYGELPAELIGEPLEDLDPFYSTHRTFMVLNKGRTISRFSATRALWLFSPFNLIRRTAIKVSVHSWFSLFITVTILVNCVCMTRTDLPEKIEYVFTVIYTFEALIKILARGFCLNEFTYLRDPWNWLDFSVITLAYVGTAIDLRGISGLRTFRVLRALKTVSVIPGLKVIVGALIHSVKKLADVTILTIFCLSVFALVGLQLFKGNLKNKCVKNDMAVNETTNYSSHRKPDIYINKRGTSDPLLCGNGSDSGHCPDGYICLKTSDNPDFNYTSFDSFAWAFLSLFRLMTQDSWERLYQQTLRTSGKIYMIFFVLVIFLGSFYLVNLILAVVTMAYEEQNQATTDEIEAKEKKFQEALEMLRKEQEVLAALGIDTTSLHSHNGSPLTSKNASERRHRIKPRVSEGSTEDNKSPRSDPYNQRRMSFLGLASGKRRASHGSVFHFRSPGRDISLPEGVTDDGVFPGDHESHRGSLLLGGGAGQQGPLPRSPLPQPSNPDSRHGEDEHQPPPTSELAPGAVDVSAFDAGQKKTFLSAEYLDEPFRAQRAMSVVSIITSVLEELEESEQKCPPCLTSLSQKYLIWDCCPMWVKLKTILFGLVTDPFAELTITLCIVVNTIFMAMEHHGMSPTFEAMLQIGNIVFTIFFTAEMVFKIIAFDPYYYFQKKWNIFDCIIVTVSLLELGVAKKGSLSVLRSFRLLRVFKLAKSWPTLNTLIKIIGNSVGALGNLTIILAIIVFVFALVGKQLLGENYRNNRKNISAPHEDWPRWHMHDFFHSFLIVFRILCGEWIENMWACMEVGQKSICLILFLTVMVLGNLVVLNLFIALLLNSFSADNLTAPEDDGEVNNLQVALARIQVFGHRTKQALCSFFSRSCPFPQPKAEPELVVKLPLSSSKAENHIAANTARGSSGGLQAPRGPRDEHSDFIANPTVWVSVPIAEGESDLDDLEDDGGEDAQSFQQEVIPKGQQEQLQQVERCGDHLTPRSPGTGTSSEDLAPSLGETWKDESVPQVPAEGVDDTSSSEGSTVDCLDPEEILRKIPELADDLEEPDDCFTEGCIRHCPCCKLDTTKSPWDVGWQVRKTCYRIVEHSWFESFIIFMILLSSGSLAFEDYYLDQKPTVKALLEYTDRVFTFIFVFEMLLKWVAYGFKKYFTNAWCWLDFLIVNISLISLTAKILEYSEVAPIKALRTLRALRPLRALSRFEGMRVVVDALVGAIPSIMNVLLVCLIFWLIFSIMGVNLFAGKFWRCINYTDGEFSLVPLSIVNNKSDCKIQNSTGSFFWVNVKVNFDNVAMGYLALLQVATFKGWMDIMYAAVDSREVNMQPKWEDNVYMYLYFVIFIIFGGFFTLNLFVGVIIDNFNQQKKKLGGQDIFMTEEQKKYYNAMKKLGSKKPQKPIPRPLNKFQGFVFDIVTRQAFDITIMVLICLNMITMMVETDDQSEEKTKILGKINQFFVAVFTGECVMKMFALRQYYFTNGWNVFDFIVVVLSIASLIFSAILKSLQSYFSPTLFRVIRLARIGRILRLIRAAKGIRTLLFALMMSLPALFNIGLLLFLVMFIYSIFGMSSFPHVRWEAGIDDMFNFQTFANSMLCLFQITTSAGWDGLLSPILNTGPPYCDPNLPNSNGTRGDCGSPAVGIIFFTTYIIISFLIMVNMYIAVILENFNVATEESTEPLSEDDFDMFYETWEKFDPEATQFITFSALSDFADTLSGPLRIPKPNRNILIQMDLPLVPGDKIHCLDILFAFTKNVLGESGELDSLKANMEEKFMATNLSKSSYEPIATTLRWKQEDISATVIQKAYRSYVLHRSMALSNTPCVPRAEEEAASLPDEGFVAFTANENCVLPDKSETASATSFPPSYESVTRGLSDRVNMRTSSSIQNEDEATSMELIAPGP
Sequence (Q07699 19-218 partner): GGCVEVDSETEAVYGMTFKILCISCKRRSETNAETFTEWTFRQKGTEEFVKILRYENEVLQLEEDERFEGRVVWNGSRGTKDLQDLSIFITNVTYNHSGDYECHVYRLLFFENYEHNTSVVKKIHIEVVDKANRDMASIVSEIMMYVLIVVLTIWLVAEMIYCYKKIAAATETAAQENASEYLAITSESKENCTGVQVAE
assay_procedure: Nav1.8 sodium channels assay, QPatch 48 HTX electrophysiology in HEK293-Nav1.8 cells
Assay type: cell-based
run_conditions: at least one set of experimental runs; read-out: average pIC50 value against Nav1.8 (converted)
property_measured: IC50

| compound | measurement_target | property_measured | readout_value |
| --- | --- | --- | --- |
| CCc1[nH]c(=O)ccc1N1CN(c2ccc(F)cc2C)c2cc(OC(F)(F)F)ccc2C1=O | human Nav1.8 (Homo sapiens, UniProt Q9Y5Y9) | IC50 | ≤ 100 nM |
| Cc1cc(F)ccc1N1CN(c2ccc(=O)[nH]c2C)C(=O)c2c(F)cccc21 | human Nav1.8 (Homo sapiens, UniProt Q9Y5Y9) | IC50 | 126 to 631 nM |
| Cc1cc(F)ccc1N1CN(c2ccc(=O)[nH]c2C)C(=O)c2cc(C(F)(F)F)c(F)cc21 | human Nav1.8 (Homo sapiens, UniProt Q9Y5Y9) | IC50 | ≤ 100 nM |
| Cc1cc(=O)[nH]c(C)c1N1CN(c2ccc(F)cc2C(C)C)c2cc(C(F)(F)F)ccc2C1=O (single isomer, unassigned) [Example 290] | human Nav1.8 (Homo sapiens, UniProt Q9Y5Y9) | IC50 | 126 to 631 nM |
| COc1cc(F)ccc1N1CN(c2ccc(=O)[nH]c2)C(=O)c2c1cccc2C(F)(F)F | human Nav1.8 (Homo sapiens, UniProt Q9Y5Y9) | IC50 | 794 to 7940 nM |
| Cc1cc(F)ccc1N1CN(c2ccc(=O)[nH]c2C)C(=O)c2ccc(Cl)cc21 | human Nav1.8 (Homo sapiens, UniProt Q9Y5Y9) | IC50 | ≤ 100 nM |
| Cc1cc(F)ccc1N1CN(c2ccc(=O)[nH]c2C)C(=O)c2cc(C(F)(F)F)ccc21 | human Nav1.8 (Homo sapiens, UniProt Q9Y5Y9) | IC50 | ≤ 100 nM |
| Cc1cc(F)ccc1N1CN(c2ccc(=O)[nH]c2N)C(=O)c2cc(C(F)(F)F)ccc21 | human Nav1.8 (Homo sapiens, UniProt Q9Y5Y9) | IC50 | ≤ 100 nM |
| Cc1cc(OC(F)F)ccc1N1CN(c2ccc(=O)[nH]c2C)C(=O)c2cc(C(F)(F)F)ccc21 | human Nav1.8 (Homo sapiens, UniProt Q9Y5Y9) | IC50 | ≤ 100 nM |
| Cc1cc(F)ccc1N1CN(c2c[nH]nc2C)C(=O)c2cc(C(F)(F)F)ccc21 | human Nav1.8 (Homo sapiens, UniProt Q9Y5Y9) | IC50 | 126 to 631 nM |
| Cc1cc(F)ccc1N1CN(c2ccc(=O)[nH]c2C)C(=O)c2cc(C(F)(F)F)c(C#N)cc21 | human Nav1.8 (Homo sapiens, UniProt Q9Y5Y9) | IC50 | ≤ 100 nM |
| Cc1cc(C#N)ccc1N1CN(c2ccc(=O)[nH]c2C)C(=O)c2cc(Cl)ccc21 | human Nav1.8 (Homo sapiens, UniProt Q9Y5Y9) | IC50 | ≤ 100 nM |
| CCc1cc(F)ccc1N1CN(c2cc[n+]([O-])cc2C)C(=O)c2cc(Cl)c(F)cc21 | human Nav1.8 (Homo sapiens, UniProt Q9Y5Y9) | IC50 | ≤ 100 nM |
| Cc1cc(F)ccc1N1CN(c2ccc(C(N)=O)[n+]([O-])c2)C(=O)c2c1ccc(Cl)c2F | human Nav1.8 (Homo sapiens, UniProt Q9Y5Y9) | IC50 | 794 to 7940 nM |
| Cc1cc(F)ccc1N1CN(c2ccc(=O)[nH]c2C)C(=O)c2cc(Cl)c(C(F)F)cc21 | human Nav1.8 (Homo sapiens, UniProt Q9Y5Y9) | IC50 | ≤ 100 nM |
| Cc1cc(F)ccc1N1CN(c2ccc(=O)[nH]c2C)C(=O)c2ccc(OC(F)(F)F)cc21 | human Nav1.8 (Homo sapiens, UniProt Q9Y5Y9) | IC50 | ≤ 100 nM |

---

measurement_target: human Nav1.8 (Homo sapiens)
Construct: expressed in transfected cells; host or cells: HEK293 (HEK293-Nav1.8)
assay_procedure: Nav1.8 sodium channels assay, QPatch 48 HTX electrophysiology in HEK293-Nav1.8 cells
Assay type: cell-based
run_conditions: at least one set of experimental runs; read-out: average pIC50 value against Nav1.8 (converted)
Each entry below carries its reported IC50.

| compound | measurement_target | IC50 |
| --- | --- | --- |
| Cc1c[nH]c(=O)cc1N1CN(c2ccc(F)cc2C)c2cc(C(F)(F)F)ccc2C1=O [Example 54] | human Nav1.8 (Homo sapiens) | 0.794 to 7.94 µM |
| Cc1[nH]c(=O)ccc1N1CN(c2ccc(F)cc2C(C)(C)C)c2ccc(Cl)cc2C1=O [Example 95] | human Nav1.8 (Homo sapiens) | ≤ 0.1 µM |
| COc1ccc2c(c1)N(c1ccc(F)cc1C)CN(c1ccc(=O)[nH]c1C)C2=O [Example 99] | human Nav1.8 (Homo sapiens) | ≤ 0.1 µM |
| Cc1cc(F)cc(F)c1N1CN(c2ccc(=O)[nH]c2C)C(=O)c2cc(C(F)(F)F)ccc21 [Example 121] | human Nav1.8 (Homo sapiens) | 0.126 to 0.631 µM |
| CCc1[nH]c(=O)ccc1N1CN(c2ccc(F)cc2C)c2cc(C(F)(F)F)ccc2C1=O [Example 150] | human Nav1.8 (Homo sapiens) | ≤ 0.1 µM |
| Cc1cc(F)ccc1N1CN(c2ccc(=O)[nH]c2C)C(=O)c2ccc(C3CC3)cc21 [Example 187] | human Nav1.8 (Homo sapiens) | ≤ 0.1 µM |
| Cc1cc(N)ncc1N1CN(c2ccc(F)cc2C)c2ccc(C(F)(F)F)cc2C1=O [Example 277] | human Nav1.8 (Homo sapiens) | 0.126 to 0.631 µM |
| Cc1[nH]c(=O)ccc1N1CN(c2cccc(Cl)c2C)c2ncc(C(F)(F)F)cc2C1=O [Example 175] | human Nav1.8 (Homo sapiens) | 0.126 to 0.631 µM |
| Cc1c[n+]([O-])ccc1N1CN(c2ccc(OC(F)(F)F)cc2C)c2cc(F)c(Cl)cc2C1=O [Example 246] | human Nav1.8 (Homo sapiens) | ≤ 0.1 µM |
| Cc1cc(F)ccc1N1CN(c2ccnn2C)C(=O)c2cc(C(F)(F)F)ccc21 [Example 4] | human Nav1.8 (Homo sapiens) | 0.126 to 0.631 µM |
| Cc1cc(F)ccc1N1CN(c2ccc(=O)[nH]c2Br)C(=O)c2cc(C(F)(F)F)ccc21 [Example 164] | human Nav1.8 (Homo sapiens) | 0.126 to 0.631 µM |
| Cc1cc(F)ccc1N1CN(c2ccc(=O)[nH]c2C)C(=O)c2c1ccc(Cl)c2C [Example 234] | human Nav1.8 (Homo sapiens) | ≤ 0.1 µM |
| Cc1cc(F)ccc1N1CN(c2cc[nH]c(=O)c2C)C(=O)c2cc(C(F)(F)F)ccc21 [Example 238] | human Nav1.8 (Homo sapiens) | 0.794 to 7.94 µM |
| Cc1c[n+]([O-])ccc1N1CN(c2ccc(OC(F)(F)F)cc2C)c2ccc(C(F)(F)F)cc2C1=O [Example 256] | human Nav1.8 (Homo sapiens) | ≤ 0.1 µM |
| Cc1cc(=O)[nH]cc1N1CN(c2ccc(F)cc2C)c2cc(C(F)(F)F)ccc2C1=O [Example 221] | human Nav1.8 (Homo sapiens) | 0.126 to 0.631 µM |
| Cc1ccc(N2CN(c3ccc(=O)[nH]c3C)C(=O)c3ccc(C(F)(F)F)cc32)c(C)c1 [Example 203] | human Nav1.8 (Homo sapiens) | ≤ 0.1 µM |
| Cc1cc(F)ccc1N1CN(c2c[nH]c(=O)c(C)c2)C(=O)c2ccc(C(F)(F)F)cc21 [Example 218] | human Nav1.8 (Homo sapiens) | 0.126 to 0.631 µM |
| Cc1cc(C#N)ccc1N1CN(c2ccc(=O)[nH]c2C)C(=O)c2cc(OC(F)(F)F)ccc21 [Example 123] | human Nav1.8 (Homo sapiens) | ≤ 0.1 µM |
| COc1ccc(N2CN(c3ccc(=O)[nH]c3C)C(=O)c3cc(C(F)(F)F)ccc32)c(OC)c1 [Example 225] | human Nav1.8 (Homo sapiens) | ≤ 0.1 µM |
| Cc1cc(F)ccc1N1CN(c2cnc(=O)[nH]c2)C(=O)c2ccc(C(F)(F)F)cc21 [Example 145] | human Nav1.8 (Homo sapiens) | 0.126 to 0.631 µM |
